This collection of values is drawn from patent US20210363269A1.

- targetOrSystem: T1, human SIRP-α v1 (human, UniProt P78324 31-149)
- T1 construct: also called Human v1; Human V1
- T1 sequence (P78324 31-149 limits assumed): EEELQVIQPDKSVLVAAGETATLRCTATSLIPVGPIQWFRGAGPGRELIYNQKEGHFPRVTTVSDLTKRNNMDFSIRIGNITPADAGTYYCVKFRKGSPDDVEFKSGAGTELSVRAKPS
- experimentDescription: SPR
outcomeMeasure: pKd
Interpret pKd as the negative base-10 log of the concentration measured in mol/L.

Guide cases for pKd, answers given:
binder: antibody 132 (antibody, V domains shown, also called AB132; S132) VH: DVQLVESGGGVVRPGESLRLSCAASGFSFRSYAMNWVRQAPGEGLEWVSRINSGGGGTDYADSVKGRFTISRDNSKNTLYLQMNSLRAEDTAVYYCAKQYDWNSFFDYWGLGALVTVSS VL: ETVLTQSPATLSVSPGERATLSCRASQTVGSKLAWHQQKPGQAPRLLIYDASNRATGIPDRFSGSGSGTDFTLTISSPQTEDSAVYYCQQYYYWPPYRFGGGTKVEIK
pKd: 9.37
--
binder: antibody 209 (antibody, V domains shown, also called S209) VH: DVQLVESGGAVVRPGESLRLSCKASGFTFTNFAMSWVRQAPGEGLEWVSGISGSDDTTYYADSVKGRFTISRDNSESTLYLQMNSLRAEDTAVYYCVKDSTVSWNTFFDYWGLGTLVTVSS VL: ALTQPASVSANLGGTVKITCSGGYGSDDGSSSYYGWYQQKSPGSAPVILIYWDDKRPSDIPSRFSGSTSGSTTTLTITGVQAEDEAVYFCGTYDTSSGAIFGAGTTLTVL
pKd: 9.77
--
binder: antibody 194 (antibody, V domains shown, also called S194) VH: DVQLVESGGGVVRPGESLRLSCAASGFTFRNYGMSWVRQAPGEGLEWVSASSGSGSTYYADSVKGRFTISRDNSKNTLYLQMNSLRAEDTAIYYCAKVTWNNFFDYWGLGTLVTVSS VL: EIVLAQSPDTLSVSPGERATLTCRASQDVAGKLAWYQQKPGQAPRLLIHATSSRADGIPARFSGSGSGTEFTLTITGLQSEDFAVYYCQQHYDWSPLTFGGGTKVEIK
pKd: 9.30

# get_value(readout='pKd', item= antibody 116 (antibody, V domains shown, also called S116) VH: VQLVESGGGVVRPGESLRLSCAASGFSFSSYAMNWVRQAPGEGLEWVSRINSGGGGTDYAESVKGRFTISRDNSENTLYLQMNSLRAEDTAVYYCAKQYDWNSFFDYWGLGALVTVSS VL: ETVLTQSPATLSVSPGERATLSCRASQTVGSKLAWHQQKPGQAPRLLIYDATNRATGISDRFSGSRSGTDFTLTISSLQTEDSAVYYCQQYYYWPPYRFGGGTKVEIK )
9.96

Please give the result for antibody 189 (antibody, V domains shown, also called S189) VH: DVQLVESGGGVVRPGESLRLSCAASGFTFSSSDMNWVRQAPGEGLEWVSLISGSGEITYYADSVKGRFTISRDNSKNTLYLQMNSLRAEDTAIYYCAKENNMYRFFDYWGLGTLVTVSS VL: ETVLTQSPGTLSLSPGERATLSCRASQSVYTYLAWYQQKPGQPPRLLIHAARNRAAGIPDRFSGSGSGTEFTLTISSLQSEDFAVYYCQQYYDRPPLTFGGGTKVEIK too.
9.51

// query: antibody 122 (antibody, V domains shown, also called S122) VH: VQLVESGGGVVRPGESLRLSCAASGFRFSNFAMTWVRQAPGEGLEWVSTIGSGDTYYADSVKGRFTISRDNSKNTLYLQMNSLRAEDTAVYYCAKDSTVSWSGDFFDYWGLGTLVTVSS VL: EIVLTQSPATLSVSPGERATFSCRASQNVKNDLAWYQQRPGQAPRLLIYAARIRETGIPERFSGSGSGTEFTLTITSLQSEDFAVYYCQQYYDWPPFTFGGGTKVEIK
9.67

Also antibody 27 (antibody, V domains shown, also called AB27; S27) VH: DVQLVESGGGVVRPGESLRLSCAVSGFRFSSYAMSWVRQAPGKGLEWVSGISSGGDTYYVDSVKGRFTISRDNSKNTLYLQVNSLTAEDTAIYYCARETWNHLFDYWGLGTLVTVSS VL: ALTQPASVSADLGETVKITCSGGDSSSHYYGWYQQKSPGSAPVTVIYSDDERPSDIPSRFSGSASGSTATLTITGVRVEDEAIYYCGAYDGSTYANTFGAGTTLTVL ?
10.67

And then antibody 135 (antibody, V domains shown, also called AB135; S135) VH: DVQLVESGGGVVRPGESLRLSCAASGFSFSIYAMSWVRQAPGEGLEWVSTIGADDTYYADSVKGRFTISRDNSKNTLYLQMNSLRAEDTAVYYCAKDSTVGWSGDFFDYWGLGTLVTVSS VL: EIVLTQSPATLSVSPGERVTFSCRASQNVRSDIAWYQQKPGQAPRLLIYAASSRDTGIPDRFSGSGSGTDFTLTISSLQSEDFGVYYCQQYYDWPPFTFGGGTKVEIK , what is it?
9.82
